Tested on: HCC1806
TEST: Antiproliferative activity against human HCC1806 cells assessed as inhibition of cell proliferation incubated for 3 days by CellTiter-Glo Luminescent Cell Viability Assay
Assay type: functional, cell-based
TEST CONDITIONS: HCC1806, 72 h
QUANTITY: pIC50
Notebook: values listed as pIC50 are -log10 of the concentration (mol/L).

Asked: # lookup: pIC50 of `Cc1nc(Nc2n[nH]c3c2CN(C(=O)N[C@H](CN(C)C)c2ccccc2)C3(C)C)c2sccc2n1`
Given back: 8.92

====

Test system: NCI-H2087
TEST: Inhibition of anchorage independent cell growth in human NCI-H2087 cells incubated for 6 days by Alamar blue reagent based fluorescence plate reader analysis
Format: functional
TEST CONDITIONS: NCI-H2087, 144 h
QUANTITY: pIC50
Friendly reminder that pIC50 comes from taking -log10 of the concentration in mol/L.

Asked: Item under review: `Cc1nc(Nc2n[nH]c3c2CN(C(=O)N[C@H](CN(C)C)c2ccccc2)C3(C)C)c2sccc2n1` . Reported pIC50?
Given back: 8.87
